Target: acVHH-V104D
Settings: read-out: binding affinity (KD) of caffeine to acVHH-V104D; SPR multi-cycle kinetics, steady state analysis; acVHH-V104D immobilised on CM5 chip
Procedure: A stock of 30 μg/mL protein ac VHH-V104D was prepared in 10 mM NaAc buffer of pH 5 and covalently immobilised on a CM5 chip (GE Healthcare) with a 300 sec contact time and 10 μL/min flow rate to reach 4 600 response units (RU). […] KD values were obtained by steady state analysis.
parameter: pKd
Please report pKd as the negative decimal logarithm of the molar concentration, giving only the number.

Input line: Report pKd for "Cn1c(=O)c2c(ncn2C)n(C)c1=O"
Output line: 1.14
